# Blood pressure, Δ% values compiled below
- System: Anaesthetized cat
- test.protocol: Blood pressure and heart rate in the anaesthetized cat (i.v.)
- Format: in vivo
- test.settings: 3.0 mg/kg (i.v.), maximum variation from control
Reply numerically in %, unit not repeated.

Qu. GET /values?readout=Blood pressure, Δ%&item= Cc1cc[n+]([O-])c(CON2CCNC2=Nc2c(Cl)cccc2Cl)c1 [D]
Ans. -22

Qu. Next compound: Cc1cccc(CON2CCNC2=Nc2c(Cl)cccc2Cl)[n+]1[O-] [G]
Ans. -4

Qu. Next compound: Cc1ccc(CON2CCNC2=Nc2c(Cl)cccc2Cl)[n+]([O-])c1 [F]
Ans. 0

====

- Test system: Spontaneously hypertensive rat
- test.protocol: Cardiovascular activities: systolic blood pressure and heart rate in conscious spontaneously hypertensive rats (p.o.)
- Assay type: in vivo
- test.settings: 10.0 mg/kg (p.o.), maximum variation from control
# Blood pressure, Δ% values compiled below
Reply numerically in %, unit not repeated.

Qu. GET /values?readout=Blood pressure, Δ%&item= CC(ON1CCNC1=Nc1c(Cl)cccc1Cl)c1cc[n+]([O-])cc1 (centres unmarked) [E]
Ans. -13.9

====

- Test system: Spontaneously hypertensive rat
- test.protocol: Cardiovascular activities: systolic blood pressure and heart rate in conscious spontaneously hypertensive rats (p.o.)
- Assay type: in vivo
- test.settings: 3.0 mg/kg (p.o.), maximum variation from control
readout.label: Blood pressure, Δ% (%)
Reply numerically in %, unit not repeated.

Reference set, count: 2
Cc1ccc(CON2CCNC2=Nc2c(Cl)cccc2Cl)[n+]([O-])c1 [F] :: -10.4
Cc1cc[n+]([O-])c(CON2CCNC2=Nc2c(Cl)cccc2Cl)c1 [D] :: -10.2

Proceed to the following item.
Qu. GET /values?readout=Blood pressure, Δ%&item= [O-][n+]1ccccc1CON1CCNC1=Nc1cccc(Cl)c1Cl [B]
Ans. -7.8

====

# Blood pressure, Δ% values compiled below
- System: Anaesthetized cat
- test.protocol: Blood pressure and heart rate in the anaesthetized cat (i.v.)
- Type: in vivo
- test.settings: 3.0 mg/kg (i.v.), maximum variation from control
Reply numerically in %, unit not repeated.

[O-][n+]1ccccc1CON1CCNC1=Nc1cccc(Cl)c1Cl :: -25

Qu. GET /values?readout=Blood pressure, Δ%&item= CC(ON1CCNC1=Nc1c(Cl)cccc1Cl)c1cc[n+]([O-])cc1 (stereo not drawn)
Ans. -4

Qu. Next compound: [O-][n+]1ccccc1CON1CCNC1=Nc1c(Cl)cccc1Cl
Ans. -10

====

- System: Spontaneously hypertensive rat
- test.protocol: Cardiovascular activities: systolic blood pressure and heart rate in conscious spontaneously hypertensive rats (p.o.)
- Assay type: in vivo
- test.settings: 10.0 mg/kg (p.o.), maximum variation from control
readout.label: Blood pressure, Δ%

CN(C1=NCCN1OCc1cccc[n+]1[O-])c1c(Cl)cccc1Cl [C] :: +2.2%
[O-][n+]1ccccc1CON1CCNC1=Nc1c(Cl)cccc1Cl [Compound A] :: -3.1%
Cc1cc[n+]([O-])c(CON2CCNC2=Nc2c(Cl)cccc2Cl)c1 [D] :: -12.6%

Qu. GET /values?readout=Blood pressure, Δ%&item= Cc1cccc(CON2CCNC2=Nc2c(Cl)cccc2Cl)[n+]1[O-] [G]
Ans. -12.0%

====

- Tested on: Spontaneously hypertensive rat
- test.protocol: Cardiovascular activities: systolic blood pressure and heart rate in conscious spontaneously hypertensive rats (p.o.)
- Type: in vivo
- test.settings: 3.0 mg/kg (p.o.), maximum variation from control
# Blood pressure, Δ% values compiled below

[O-][n+]1ccccc1CON1CCNC1=Nc1c(Cl)cccc1Cl :: +0.3%
CN(C1=NCCN1OCc1cccc[n+]1[O-])c1c(Cl)cccc1Cl :: +1.2%

Qu. GET /values?readout=Blood pressure, Δ%&item= CC(ON1CCNC1=Nc1c(Cl)cccc1Cl)c1cc[n+]([O-])cc1 (stereo not drawn)
Ans. +10.2%
